biological target: human Gal-4C (Homo sapiens)
Sequence (P56470 179-323): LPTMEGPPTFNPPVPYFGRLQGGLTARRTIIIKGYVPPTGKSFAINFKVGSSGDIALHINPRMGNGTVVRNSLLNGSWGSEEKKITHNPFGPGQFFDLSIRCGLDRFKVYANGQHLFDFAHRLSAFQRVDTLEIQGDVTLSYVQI
observation_type: pIC50
Note: pIC50 values are expressed as the negative base-10 logarithm of concentration in M.

Task: What does the data say about its pIC50? Entry: OC[C@H]1O[C@@H](O[C@H]2[C@H](O)[C@@H](O)C(O)O[C@@H]2CO)[C@H](O)[C@@H](O)[C@H]1O (mixture of isomers) [lactose]
Result: 2.15
